The origin of these recorded values is patent US20170002041A1.

# Measurement Description: Hydrogel formation / minimum gelation concentration
# Assay type: physicochemical
# Run Parameters: in PBS
Metric: minimum gelation concentration (forms hydrogels at) (mg/mL)
Give just the numeric value; mg/mL need not be written.

Exercise: May I ask what minimum gelation concentration (forms hydrogels at) has been recorded for Ac-LIVAGK-NH2 ?
Solution: 7.5
